Experiment: Plasma concentration in dogs after 2 hr at 30mg/kg oral dose
Type: ADME, organism-based, Canis lupus familiaris
Conditions: dog, read-out: Conc_plasma
MEASURED ATTRIBUTE: concentration at 2 h (µg/mL)
Output spec: scalar in µg/mL, unitless text.

Using the record for `CN(C)C(=O)N1CCN(S(=O)(=O)N2CC=C(c3ccc(F)cc3)CC2)[C@@H](C(=O)NO)C1` , report its concentration at 2 h.
0.11

----------
Tested on: MONO-MAC-6
Experiment: Inhibitory activity against monomac6 (MM6) human monocytic cell line
Format: functional, cell-based
Settings: mono-mac-6
MEASURED ATTRIBUTE: IC50 (µM)
Output spec: scalar in µM, unitless text.

Using the record for O=C(NO)[C@H]1CCCCN1S(=O)(=O)N1CC=C(c2ccc(Cl)cc2)CC1 (stereo in doubt; 6) , report its IC50.
0.48

Where do the numbers come from? From ChEMBL document CHEMBL1136350.
